Attribute: logP

>  <compound>
CC1CCC2C(C)C(OC(=O)C=Cc3ccccc3)OC3OC4(C)CCC1C32OO4 (stereo not given)

>  <logP>
3.83

$$$$
>  <compound>
CCOC(=O)OC1OC2OC3(C)CCC4C(C)CCC(C1C)C24OO3 (stereo not given)

>  <logP>
2.37

$$$$
>  <compound>
CC1CCC2C(C)C(OC(=O)Oc3ccccc3)OC3OC4(C)CCC1C32OO4 (stereo not given)

>  <logP>
3.38

$$$$
>  <compound>
CO[C@@H]1O[C@@H]2O[C@@]3(C)CC[C@H]4[C@H](C)CC[C@@H]([C@H]1C)[C@@]24OO3 (relative stereo)

>  <logP>
2.86

$$$$
>  <compound>
CC(C)CCOC1OC2OC3(C)CCC4C(C)CCC(C1C)C24OO3 (stereo not given)

>  <logP>
4.07

$$$$

* * *

quantity.kind: logP

>  <compound>
CCO[C@H]1O[C@@H]2O[C@@]3(C)CC[C@H]4[C@H](C)CC[C@@H]([C@H]1C)[C@@]24OO3

>  <quantity.kind>
logP

>  <value.reported>
3.29

$$$$
>  <compound>
CCCC(=O)OC1OC2OC3(C)CCC4C(C)CCC(C1C)C24OO3 (centres undefined)

>  <quantity.kind>
logP

>  <value.reported>
2.99

$$$$
>  <compound>
CC(=O)OC1OC2OC3(C)CCC4C(C)CCC(C1C)C24OO3 (centres undefined)

>  <quantity.kind>
logP

>  <value.reported>
2.08

$$$$
>  <compound>
CC1CCC2C(C)C(OCc3ccccc3)OC3OC4(C)CCC1C32OO4 (centres undefined)

>  <quantity.kind>
logP

>  <value.reported>
4.2

$$$$
>  <compound>
CCCOC(=O)OC1OC2OC3(C)CCC4C(C)CCC(C1C)C24OO3 (centres undefined)

>  <quantity.kind>
logP

>  <value.reported>
3.11

$$$$
>  <compound>
CCC(=O)OC1OC2OC3(C)CCC4C(C)CCC(C1C)C24OO3 (centres undefined)

>  <quantity.kind>
logP

>  <value.reported>
2.33

$$$$
>  <compound>
CCCOC1OC2OC3(C)CCC4C(C)CCC(C1C)C24OO3 (centres undefined)

>  <quantity.kind>
logP

>  <value.reported>
3.65

$$$$
>  <compound>
CC(C)OC1OC2OC3(C)CCC4C(C)CCC(C1C)C24OO3 (centres undefined)

>  <quantity.kind>
logP

>  <value.reported>
3.49

$$$$
>  <compound>
COCCOCCOC1OC2OC3(C)CCC4C(C)CCC(C1C)C24OO3 (centres undefined)

>  <quantity.kind>
logP

>  <value.reported>
3.51

$$$$

// provenance: the SangsterLogP compilation
